# assay-notes: Plasma Stability Assay (Example A3), rat plasma
# Assay type: in vitro ADME
# condition: 10 μM, 37° C., prodrug remaining, 240 min
recorded-metric: Prodrug (%)

input-smiles | recorded-metric | u | test-value
COc1ccc([C@@]23CCC(OP(=O)(O)OCOC(=O)OC(C)C)=C[C@@H]2N(C)CC3)cc1OC | Prodrug (%) | % | 0.01
COc1ccc([C@@]23CCC(OP(=O)(O)OCOC(=O)C(C)(C)C)=C[C@@H]2N(C)CC3)cc1OC | Prodrug (%) | % | 22.7
COc1ccc([C@@]23CCC(OP4(=O)OCC(C)(C)CO4)=C[C@@H]2N(C)CC3)cc1OC | Prodrug (%) | % | 34.0

* * *

# assay-notes: Plasma Stability Assay (Example A2), human plasma
# Assay type: in vitro ADME
# condition: 37° C., prodrug remaining, 15 min

compound | Prodrug (%)
COc1ccc([C@@]23CCC(OP(=O)(OC(C)C)OC(C)C)=C[C@@H]2N(C)CC3)cc1OC [Compound 321] | >99%
COc1ccc([C@@]23CCC(OC(=O)N(C)C)=C[C@@H]2N(C)CC3)cc1OC [Compound 324] | 98.2%
COc1ccc([C@@]23CCC(OC(=O)N4CCN(C)CC4)=C[C@@H]2N(C)CC3)cc1OC [Compound 327] | >99%

* * *

# assay-notes: Plasma Stability Assay (Example A2), human plasma
# Assay type: in vitro ADME
# condition: 37° C., prodrug remaining, 0 min
Reported Prodrug (%) by item:

input-smiles | Prodrug (%)
COc1ccc([C@@]23CCC(OP(=O)(Oc4ccccc4)Oc4ccccc4)=C[C@@H]2N(C)CC3)cc1OC | 100
COc1ccc([C@@]23CCC(OC(=O)N(C)C)=C[C@@H]2N(C)CC3)cc1OC | 100.0
COc1ccc([C@@]23CCC(OC(=O)N4CCN(C)CC4)=C[C@@H]2N(C)CC3)cc1OC | 100
COc1ccc([C@@]23CCC(OP(=O)(OC(C)C)OC(C)C)=C[C@@H]2N(C)CC3)cc1OC | 100
COc1ccc([C@@]23CCC(OP(=O)(O)O)=C[C@@H]2N(C)CC3)cc1OC | 100
COc1ccc([C@@]23CCC(OP4(=O)OCC(C)(C)CO4)=C[C@@H]2N(C)CC3)cc1OC | 100
CCN(C)C(=O)OC1=C[C@@H]2N(C)CC[C@]2(c2ccc(OC)c(OC)c2)CC1 | 100.0

* * *

# assay-notes: Plasma Stability Assay (Example A2), human plasma
# Assay type: in vitro ADME
# condition: 37° C., prodrug remaining, 120 min
# Method: Each test was carried out in duplicate for each time point; 0 min, 15 min, 30 min, 60 min, 120, 240 min. […]

molecule | reading-qualifier | Prodrug (%)
COc1ccc([C@@]23CCC(OC(=O)N4CCN(C)CC4)=C[C@@H]2N(C)CC3)cc1OC [Compound 327] | > | 99
COc1ccc([C@@]23CCC(OP4(=O)OCC(C)(C)CO4)=C[C@@H]2N(C)CC3)cc1OC [Compound 323] | = | 12.8
COc1ccc([C@@]23CCC(OP(=O)(O)O)=C[C@@H]2N(C)CC3)cc1OC [Compound 359] | = | 32.8

* * *

Reported Prodrug (%) by item:
# assay-notes: Plasma Stability Assay (Example A3), human plasma
# Assay type: in vitro ADME
# condition: 10 μM, 37° C., prodrug remaining, 30 min

input-smiles | u | reading-qualifier | Prodrug (%)
COc1ccc([C@@]23CCC(OP(=O)(O)OCOC(=O)C(C)(C)C)=C[C@@H]2N(C)CC3)cc1OC | % | = | 95.2
COc1ccc([C@@]23CCC(OP4(=O)OCC(C)(C)CO4)=C[C@@H]2N(C)CC3)cc1OC | % | = | 70.8
COc1ccc([C@@]23CCC(OP4(=O)OCCCO4)=C[C@@H]2N(C)CC3)cc1OC | % | = | 73.1
COc1ccc([C@@]23CCC(OP(=O)(OC(C)C)OC(C)C)=C[C@@H]2N(C)CC3)cc1OC | % | > | 99
